- tgt: c-Src SH2
- assay.explanation: SH2 binding enrichment of the phosphorylated peptide, bacterial display (enrichment ratio); higher = better substrate or ligand; peptides without Tyr show the background;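 note: peptide library displayed on the E. coli surface as eCPX fusions, selected cells deep-sequenced, score is each peptide's frequency after selection divided by its frequency in the input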
measured.attribute: SH2 binding enrichment

Known SH2 binding enrichment results, listed for orientation:
sequence.input: TKLKDYYIFNK [CCDC42_Y149_A144T]
assay.result: 0.88

sequence.input: AGIKAYQSCLQ [ADGRA2_Y377_T375K]
assay.result: 0.57

sequence.input: YMKEPYIQSRF [HIPK4_Y175_V171M]
assay.result: 0.865

sequence.input: RAEAQYLLVSN [LRIG1_Y1054]
assay.result: 0.431

sequence.input: AIIGIYNLRDD [CDH23_Y2949_I2950N]
assay.result: 0.805

1 = HLNLTYRILSF [MMP23B_Y95_F91L]
2 = LIEQAYDNPHE [PRPF8_Y871]
// pick larger SH2 binding enrichment from pair: 1 vs 2 Could you answer with the label of the item you picked?
2
